Reported IC50 values are given for each entry in this list.
method.description: Inhibition of […] in mouse 32Dbeta cells assessed as decrease in cell growth in presence of IL2 incubated for 30 mins followed by IL2 addition and measured after 2.5 days by alamar blue assay

Cn1c(Cc2nn(CCCO[Si](C)(C)C(C)(C)C)c(=O)c3ccccc23)nnc1SCCCCCCCC(=O)Nc1ccc(Cl)cc1Cl    > 30 µM
Cn1c(Cc2nn(C)c(=O)c3ccccc23)nnc1SCC(=O)Nc1ccc(Cl)cc1Cl    21.1 µM
Cn1c(Cc2nn(CCCO)c(=O)c3ccccc23)nnc1SCC(=O)Nc1ccc(Cl)cc1Cl    > 30 µM

We next turn to a different molecule, shown below.
Name the recorded IC50 for `CCOC(CCn1c(Cc2nn(C)c(=O)c3ccccc23)nnc1SCC(=O)Nc1ccc(Cl)cc1Cl)OCC` .
> 30 µM

###

method.description: Inhibition of IL-15 in mouse 32Dbeta cells assessed as decrease in cell growth in presence of RLI incubated for 30 mins followed by RLI addition and measured after 2.5 days by alamar blue assay
Reported IC50 values are given for each entry in this list.

Examples from the recorded data:
Cn1c(Cc2nn(CCC=O)c(=O)c3ccccc23)nnc1SCCCCCCCC(=O)Nc1ccc(Cl)cc1Cl    8.9 µM
Cn1nc(Cc2nnc(SCC(=O)Nc3ccc(Cl)cc3Cl)n2CCC(=O)O)c2ccccc2c1=O    > 30 µM
CCOC(CCn1c(Cc2nn(C)c(=O)c3ccccc23)nnc1SCC(=O)Nc1ccc(Cl)cc1Cl)OCC    > 30 µM

We next turn to a different compound, shown below.
Name the recorded IC50 for `Cn1nc(Cc2nnc(SCCCCCCCC(=O)Nc3ccc(Cl)cc3Cl)n2CCCO[Si](C)(C)C(C)(C)C)c2ccccc2c1=O` .
> 30 µM

###

method.description: Inhibition of […] in mouse 32Dbeta cells assessed as decrease in cell growth in presence of IL2 incubated for 30 mins followed by IL2 addition and measured after 2.5 days by alamar blue assay
pIC50: −log10 of the molar value.
parameter: pIC50

1: Cn1c(Cc2nn(CCC=O)c(=O)c3ccccc23)nnc1SCC(=O)Nc1ccc(Cl)cc1Cl
2: CCOC(CCn1c(Cc2nn(C)c(=O)c3ccccc23)nnc1SCCCCCCCC(=O)Nc1ccc(Cl)cc1Cl)OCC
3: Cn1nc(Cc2nnc(SCCCCCCCC(=O)Nc3ccc(Cl)cc3Cl)n2CCC=O)c2ccccc2c1=O
For the compounds shown above, give the order from largest pIC50 to smallest. Write the labels out in the order the request specifies.
3, 2, 1
(3: 5.26, 2: 4.79, 1: 4.52)

###

method.description: Inhibition of IL-15 in mouse 32Dbeta cells assessed as decrease in cell growth in presence of RLI incubated for 30 mins followed by RLI addition and measured after 2.5 days by alamar blue assay
pIC50: −log10 of the molar value.
parameter: pIC50

Examples from the recorded data:
CCOC(CCn1c(Cc2nn(C)c(=O)c3ccccc23)nnc1SCCCCCCCC(=O)Nc1ccc(Cl)cc1Cl)OCC    4.92
CN(C)CCCn1nc(Cc2nnc(SCC(=O)Nc3ccc(Cl)cc3Cl)n2C)c2ccccc2c1=O    4.73
Cn1c(Cc2nn(C)c(=O)c3ccccc23)nnc1SCC(=O)Nc1ccc(Cl)cc1Cl    4.65
Cn1c(Cc2nn(C)c(=O)c3ccccc23)nnc1SCCCCCCCC(=O)Nc1ccc(C(=O)c2ccccc2)cc1    5.17
Cn1nc(Cc2nnc(SCCCCCCCC(=O)Nc3ccc(Cl)cc3Cl)n2CCC=O)c2ccccc2c1=O    5.60

a: Cn1c(Cc2nn(CCC=O)c(=O)c3ccccc23)nnc1SCC(=O)Nc1ccc(Cl)cc1Cl
b: CN(C)CCCn1c(Cc2nn(C)c(=O)c3ccccc23)nnc1SCCCCCCCC(=O)Nc1ccc(Cl)cc1Cl
c: Cn1nc(Cc2nnc(SCC(=O)Nc3ccc(Cl)cc3Cl)n2CCC=O)c2ccccc2c1=O
d: Cn1nc(Cc2nnc(SCCCCCCCC(=O)Nc3ccc(Cl)cc3Cl)[nH]2)c2ccccc2c1=O
List items by pIC50 in falling order. Write the labels out in the order the request specifies.
d, b, c, a
